# assay-text: CCTE_Shafer_MEA_dev_active_electrodes_number: CCTE's Neural Network Formation Assay for Number of Active Electrodes, Shafer Lab (AID 2284040)
Records with an inconclusive call do not appear. The source made the active and inactive calls. How the source made its calls: active means hit-call score of the fitted dose curve at least 0.9, where 1 is the maximum; inconclusive means response in the unintended direction; inactive means score below 0.9.
The reply should name one outcome from 1 = active, 0 = inactive

Recorded results for 3 compounds are shown here.
>>> df
                        structure_as_smiles  label_value
0  COc1cc2c(c(OC)c1OC)-c1ccc(OC)c(=O)cc1[C@@H](NC(C)=O)CC2            1
1          OCCC(F)(F)C(F)(F)C(F)(F)C(F)(F)F            0
2                             Cn1cc[nH]c1=S            0

Continue with the next compound.
Query string: Fill in: this test's call for FC(F)(F)C(F)(F)C(F)(F)C(F)(F)C(F)(F)C(F)(F)I is ___
Result string: 0

---

# Read-out: Cyclin D2 (CCND2), CCND2 (gene 894)
# assay-text: LTEA_HepaRG_CCND2: Life Technologies and Expression Analysis (LTEA) Assay for Cyclin D2 (CCND2) using HepaRG (AID 2283449);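 further: CCND2 transcript measured by TaqMan qRT-PCR and normalised to three housekeeping genes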
# measurement-setup: mRNA level, 48 h; actives raise or lower the signal
Calls of active or inactive are those of the source. The calls were made as follows: active = hit-call score of the fitted dose curve at least 0.9, where 1 is the maximum; inactive = score below 0.9.
Write down one outcome, taken from active, inactive

In [3]: df
Out[3]:
                                   compound  label_value
0  C[C@@H](Oc1ccc(CNC(=O)c2cccnc2Oc2ccc3c(c2)OCO3)c(F)c1)C(=O)O     inactive
1  O=C(O)c1cccc(C[C@@H]2COc3ccc(OCc4nc5cc(F)ccc5s4)cc3[C@@H]2O)c1     inactive
2                                   OCCNCCO     inactive
3  C[C@]12C=CC(=O)C=C1CC[C@H]1[C@@H]3C[C@@H](O)[C@](O)(C(=O)CO)[C@@]3(C)C[C@H](O)[C@@]12F     inactive
4                                   NC(N)=O     inactive
5                Cn1c(=O)c2[nH]cnc2n(C)c1=O     inactive
6                                OC(CCl)CCl     inactive
7     CCCCCCCC1CCC(=O)O1 (stereo not given)     inactive
8  CC(C)C(=O)Nc1ccc([N+](=O)[O-])c(C(F)(F)F)c1     inactive
9                        CCCCOC(=O)c1ccccc1     inactive

Query string: Recorded call for c1ccc2c(c1)-c1cccc3c1c-2cc1ccccc13 ?
Result string: inactive

Query string: Tell me the assay call for O=c1[nH]cnc2c1ncn2[C@H]1CC[C@@H](CO)O1 please.
Result string: inactive

Query string: Please share the test call associated with Cn1cc[nH]c1=S .
Result string: inactive

Query string: What did the test return for O=S(=O)(O)c1ccc(N=Nc2c(O)ccc3cc(S(=O)(=O)O)ccc23)cc1 ?
Result string: inactive

Query string: Which outcome was assigned to c1ccc(C(O[C@@H]2CCCN(CCc3ccc4c(c3)OCO4)C2)c2ccccc2)cc1 in this test?
Result string: inactive

---

# assay-text: APR_HepG2_MitoticArrest_72hr: Apredica 72-hour HepG2 Assay for Mitotic Arrest (AID 2282918)
# measurement-setup: high-content imaging, actives raise or lower the signal
Calls of active or inactive are those of the source. The calls were made as follows: active = hit-call score of the fitted dose curve at least 0.9, where 1 is the maximum; inactive = score below 0.9.
Outcome (select one): 1 (yes) (active), 0 (no) (inactive)

Use the examples below as a reference point.
                                   molecule  label_value
0                        CCCCOC(=O)c1ccccc1       0 (no)
1                CCN(CC)C(=S)SSC(=S)N(CC)CC      1 (yes)
2    CC(C)CC(C)O (configuration not stated)       0 (no)
3           NC(=O)NN=Cc1ccc([N+](=O)[O-])o1      1 (yes)
4  Cc1nccn1-c1ccc(Sc2cccc(C3(C(N)=O)CCOCC3)c2)cc1       0 (no)
5  CCCCC(CC)C(=O)OCCOCCOCCOC(=O)C(CC)CCCC (configuration not stated)      1 (yes)
6  OC[C@H]1O[C@@](CO)(O[C@H]2O[C@H](CO)[C@@H](O)[C@H](O)[C@H]2O)[C@@H](O)[C@@H]1O       0 (no)
7               CCCCCCCCCCCCCCCCOS(=O)(=O)O       0 (no)

Query string: Name the outcome recorded for CCOC(N)=O in the assay.
Result string: 0 (no)

Query string: Lab log entry: COS(C)(=O)=O — outcome as called in the assay?
Result string: 0 (no)

Query string: Which outcome was entered for the molecule CC(C)C(=O)Nc1ccc([N+](=O)[O-])c(C(F)(F)F)c1 in this test?
Result string: 1 (yes)

Query string: I would be grateful if you could indicate the recorded call for NC(N)=O .
Result string: 0 (no)

---

# assay-text: CEETOX_H295R_PROG: CeeTox H295R High-throughput Steroidogenesis Assay for Progesterone (PROG) (AID 2283442);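 on AC50: human H295R adrenal cells primed with 10 µM forskolin before dosing; progesterone secreted into medium by H295R cells measured by HPLC-MS/MS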
# measurement-setup: actives raise or lower the signal
Active and inactive are the calls of the source. The calls were made as follows: active = hit-call score of the fitted dose curve at least 0.9, where 1 is the maximum; inactive = score below 0.9.
quantity-name: AC50

Reference set (5 entries):
>>> print(df.to_string())
                                   compound           result
0  CCCCC(CC)C(=O)OCCOCCOCCOC(=O)C(CC)CCCC (stereo unspecified)         inactive
1                           CCCCCCCCCCCCCCO         inactive
2                CCN(CC)C(=S)SSC(=S)N(CC)CC         inactive
3  CC[C@H](C)C(=O)O[C@H]1C[C@H](O)C=C2C=C[C@H](C)[C@H](CC[C@@H](O)C[C@@H](O)CC(=O)O)[C@H]21  949 nM (active)
4                        OCc1c[nH]c2ccccc12         inactive

Would you kindly look at the next entry?
Query string: Return reported AC50; argument: CCCOc1ccc(S(=O)(=O)N2CCN(CC)CC2)cc1-c1nc2c(CC)n(Cc3ccccn3)nc2c(=O)[nH]1
Result string: inactive

---

# assay-text: ACEA_ER_80hr: ACEA Biosciences xCELLigence Real-Time Cell Analysis on Estrogen Receptor Agonism for Proliferation (AID 2282667)
# measurement-setup: T47D proliferation, impedance (xCELLigence), 80 h
Results filed as inconclusive are left out. Activity calls are given as the source filed them. The calls were made as follows: active = hit-call score of the fitted dose curve at least 0.9, where 1 is the maximum; inconclusive = response in the unintended direction; inactive = score below 0.9.
# output must be one of Y for active, N for inactive

Take a look at these entries with their results.
                                   molecule  label_value
0                                 CCOC(N)=O            N
1  FC(F)(F)C(F)(F)C(F)(F)C(F)(F)C(F)(F)C(F)(F)I            N
2  O=C(N[C@H](CO)[C@H](O)c1ccc([N+](=O)[O-])cc1)C(Cl)Cl            N
3  O=C(O)c1ccc2c(c1)nc(C(=O)NC1CCN(C3CC3)CC1)n2Cc1cc(-c2ccc(Cl)s2)on1            N
4                CCN(CC)C(=S)SSC(=S)N(CC)CC            N

Query string: In this assay, the call recorded for COS(C)(=O)=O was what?
Result string: N

Query string: Test call for this molecule, please: CCCOc1ccc(S(=O)(=O)N2CCN(CC)CC2)cc1-c1nc2c(CC)n(Cc3ccccn3)nc2c(=O)[nH]1
Result string: N

Query string: Please share the test call associated with OCCC(F)(F)C(F)(F)C(F)(F)C(F)(F)F .
Result string: N

---

# Read-out: MYC, MYC (gene 4609)
# assay-text: LTEA_HepaRG_MYC: Life Technologies and Expression Analysis (LTEA) Assay for MYC using HepaRG (AID 2283518)
# measurement-setup: mRNA level, 48 h; actives raise or lower the signal
Activity calls are given as the source filed them. How the source made its calls: active means hit-call score of the fitted dose curve at least 0.9, where 1 is the maximum; inactive means score below 0.9.
Hello, when you answer, please use one of the following outcomes: 1 = active, 0 = inactive

Solved entries:
In [3]: df
Out[3]:
                                   molecule  label_value
0  C=CCc1cc(S(=O)(=O)c2ccc(O)c(CC=C)c2)ccc1O            1
1  OC[C@H]1O[C@@](CO)(O[C@H]2O[C@H](CO)[C@@H](O)[C@H](O)[C@H]2O)[C@@H](O)[C@@H]1O            0
2        OC(Cn1cncn1)(Cn1cncn1)c1ccc(F)cc1F            0

Query string: Per the assay record, what outcome was assigned to CCCCCCCCCCCCCCCCOS(=O)(=O)O ?
Result string: 0

Query string: Recorded test outcome, item CCCCCCCCCC
Result string: 0

Query string: What was the test verdict on O=C(O)c1cccc(C(=O)O)c1 ?
Result string: 0
